These data points were gathered from ChEMBL document CHEMBL1134818.

Reported Kd is given for each of the following molecules.
- assayed_system: UniProtKB P10828
- Sequence (P10828 whole entry): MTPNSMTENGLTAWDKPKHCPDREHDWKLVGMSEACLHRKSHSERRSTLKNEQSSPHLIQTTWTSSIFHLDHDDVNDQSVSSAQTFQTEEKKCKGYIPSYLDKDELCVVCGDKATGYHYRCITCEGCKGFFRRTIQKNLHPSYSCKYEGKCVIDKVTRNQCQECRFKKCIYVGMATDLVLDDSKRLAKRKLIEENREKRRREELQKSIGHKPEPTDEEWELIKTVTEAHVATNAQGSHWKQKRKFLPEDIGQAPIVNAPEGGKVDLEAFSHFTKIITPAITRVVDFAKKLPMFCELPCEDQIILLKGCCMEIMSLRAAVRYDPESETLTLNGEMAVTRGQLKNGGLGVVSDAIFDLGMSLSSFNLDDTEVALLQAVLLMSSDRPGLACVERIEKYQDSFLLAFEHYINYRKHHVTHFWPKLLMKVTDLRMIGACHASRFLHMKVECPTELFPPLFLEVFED
A number alone suffices; assume µM.

Worked examples, 2 molecules total:
>  <molecule>
Cc1cc(OCC(=O)O)cc(C)c1C(CCCO)c1ccc(O)c(C(C)C)c1 (stereo not drawn)

>  <measured_result>
3.6

$$$$
>  <molecule>
C=CCC(c1ccc(O)c(C(C)C)c1)c1c(C)cc(OCC(=O)O)cc1C (stereo not drawn)

>  <measured_result>
0.09

$$$$

Attention now shifts to the item below.
Q) Requested read-out: Kd. Entry: COc1ccc(C(c2ccc(O)c(C(C)C)c2)c2c(C)cc(OCC(=O)O)cc2C)c(OC)c1 (stereo not drawn)
A) 4.2
